Documented AC50 across a set of compounds
- MEASUREMENT TARGET: UniProt:P10635
- Sequence (P10635 whole entry): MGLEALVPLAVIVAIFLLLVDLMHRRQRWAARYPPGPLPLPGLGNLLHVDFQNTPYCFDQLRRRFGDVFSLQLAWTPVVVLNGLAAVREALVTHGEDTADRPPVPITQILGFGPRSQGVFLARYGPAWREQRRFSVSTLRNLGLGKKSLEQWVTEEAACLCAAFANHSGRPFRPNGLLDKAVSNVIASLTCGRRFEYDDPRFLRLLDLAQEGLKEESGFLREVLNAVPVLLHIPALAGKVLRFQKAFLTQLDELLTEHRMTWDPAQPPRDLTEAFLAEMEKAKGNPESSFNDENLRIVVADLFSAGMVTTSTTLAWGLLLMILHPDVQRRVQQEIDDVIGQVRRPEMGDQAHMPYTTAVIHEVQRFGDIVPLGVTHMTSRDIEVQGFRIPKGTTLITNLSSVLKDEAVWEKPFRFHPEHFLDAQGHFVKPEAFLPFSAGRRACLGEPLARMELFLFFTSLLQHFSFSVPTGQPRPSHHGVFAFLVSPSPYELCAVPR

The cases that follow already have their AC50 on record.
>>> observed_result("COc1ccccc1CNc1cc(-c2c(C)noc2C)ncn1")
"25.1 µM (inconclusive)"
>>> observed_result("COC(=O)c1ccc(NC(=S)N2CCN(Cc3cccc(C)c3)CC2)cc1")
"35.5 µM (inconclusive)"
>>> observed_result("CN(C)S(=O)(=O)c1ccc2c(c1)/C(=C/c1cc3c([nH]1)CCCC3)C(=O)N2")
"31.6 µM (inconclusive)"
>>> observed_result("c1nc(NC2CC2)c2cc(-c3ccoc3)ccc2n1")
"39.8 µM (inconclusive)"
>>> observed_result("CC=C(/C(=C/C)c1ccc(O)cc1)c1ccc(O)cc1 [DIENESTROL]")
"15.8 µM (inconclusive)"

Problem: Output reported AC50 of the compound `C[N+]1(CC(=O)OCCCc2ccccc2)CCOCC1` on UniProt:P10635.
Solution: 12.6 µM (inconclusive)

###

- MEASUREMENT TARGET: UniProt:Q9GZV3
- Sequence (Q9GZV3 whole entry): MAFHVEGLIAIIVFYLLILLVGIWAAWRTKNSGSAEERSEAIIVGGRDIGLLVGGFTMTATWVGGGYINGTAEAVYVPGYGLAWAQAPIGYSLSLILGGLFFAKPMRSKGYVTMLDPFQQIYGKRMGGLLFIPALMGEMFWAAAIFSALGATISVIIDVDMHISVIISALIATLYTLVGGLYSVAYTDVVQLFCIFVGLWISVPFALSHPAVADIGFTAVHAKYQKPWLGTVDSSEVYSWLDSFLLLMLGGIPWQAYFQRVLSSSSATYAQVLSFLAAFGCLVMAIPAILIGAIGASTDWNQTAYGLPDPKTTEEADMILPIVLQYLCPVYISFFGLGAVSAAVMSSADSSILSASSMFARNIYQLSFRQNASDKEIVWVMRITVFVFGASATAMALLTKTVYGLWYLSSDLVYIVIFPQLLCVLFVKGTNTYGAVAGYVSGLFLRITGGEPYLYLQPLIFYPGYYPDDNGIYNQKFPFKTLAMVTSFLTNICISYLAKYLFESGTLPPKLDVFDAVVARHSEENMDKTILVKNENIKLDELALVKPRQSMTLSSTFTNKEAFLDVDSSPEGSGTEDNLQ
- ASSAY METHOD TEXT: human choline transporter blockers, potency – cell-based, 5-point CRC, membrane potential dye, dose response (AID 504840)
- Format: functional
The source made the active and inactive calls.
READOUT KIND: IC50

Solved entries (count: 3):
>>> observed_result("CCN(CC)CCC(c1ccc2c(c1)OCO2)c1c(OC)cc(OC)c2c(-c3ccccc3)cc(=O)oc12 (stereo not given)")
"18.2 µM (active)"
>>> observed_result("COc1ccc(-c2csc3ncnc(N4CCN(CCO)CC4)c23)cc1")
"13.8 µM (active)"
>>> observed_result("CC1CCCCC1N=C(S)Nc1ccc(SC(F)F)cc1 (stereo not given)")
"7.63 µM (active)"

Problem: Give IC50 for `O=c1c2cc(Br)ccc2nc(-c2ccc(Cl)cc2)n1O` tested on UniProt:Q9GZV3.
Solution: 5.01 µM (active)

Problem: Report measured IC50 on UniProt:Q9GZV3; entry: CC(NC(=O)c1cccc(S(=O)(=O)N2CCN(C)CC2)c1)C1CC2CCC1C2 (stereo not given)
Solution: 13.2 µM (active)

###

# IC50 annotations
- MEASUREMENT TARGET: Beta-galactosidase (Escherichia coli, UniProt Q8VNN2)
- Sequence (Q8VNN2 whole entry): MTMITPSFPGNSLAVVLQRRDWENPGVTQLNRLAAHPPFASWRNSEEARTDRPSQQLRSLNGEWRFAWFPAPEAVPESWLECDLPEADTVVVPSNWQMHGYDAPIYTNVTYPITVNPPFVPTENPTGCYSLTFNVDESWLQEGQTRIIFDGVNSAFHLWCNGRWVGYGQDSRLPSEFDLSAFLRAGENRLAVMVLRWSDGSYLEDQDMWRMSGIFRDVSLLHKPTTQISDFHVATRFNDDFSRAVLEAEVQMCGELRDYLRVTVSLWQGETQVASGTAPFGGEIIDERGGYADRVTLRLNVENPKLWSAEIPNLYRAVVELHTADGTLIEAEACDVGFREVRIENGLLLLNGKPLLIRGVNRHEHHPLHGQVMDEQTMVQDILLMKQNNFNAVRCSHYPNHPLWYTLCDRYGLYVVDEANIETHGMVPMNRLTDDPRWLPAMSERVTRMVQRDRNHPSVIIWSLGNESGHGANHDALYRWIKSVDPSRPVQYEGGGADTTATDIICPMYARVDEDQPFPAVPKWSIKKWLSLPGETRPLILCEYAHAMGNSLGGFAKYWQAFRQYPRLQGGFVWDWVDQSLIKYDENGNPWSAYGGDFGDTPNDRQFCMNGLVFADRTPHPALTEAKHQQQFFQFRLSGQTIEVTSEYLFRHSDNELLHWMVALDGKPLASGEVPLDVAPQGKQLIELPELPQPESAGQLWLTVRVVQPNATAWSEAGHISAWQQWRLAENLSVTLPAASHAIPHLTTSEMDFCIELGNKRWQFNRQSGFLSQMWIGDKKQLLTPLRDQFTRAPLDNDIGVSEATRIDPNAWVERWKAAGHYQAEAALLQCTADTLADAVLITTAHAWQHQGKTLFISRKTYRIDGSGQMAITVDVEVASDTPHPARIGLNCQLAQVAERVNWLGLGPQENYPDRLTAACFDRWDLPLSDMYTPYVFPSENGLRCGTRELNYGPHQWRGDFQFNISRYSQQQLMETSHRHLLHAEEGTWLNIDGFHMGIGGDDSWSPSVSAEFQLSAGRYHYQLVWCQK
- ASSAY METHOD TEXT: Dose response counterscreen for EBI2 assay utilizing the enzyme, b-galactosidase.
- Assay type: functional
The source made the active and inactive calls.

Recorded IC50, per entry:
>>> observed_result("C/C(=N\\NC(=O)c1cccc(Br)c1)c1ccccn1")
"> 80 µM (inactive)"
>>> observed_result("CCN(CC(=O)Nc1c(F)cccc1F)C(=O)/C=C/c1ccc(C)cc1")
"> 80 µM (inactive)"
>>> observed_result("COc1ccc(C(=O)/C=C2\\C(=O)Nc3ccc(Br)cc32)cc1")
"71.6 µM (inactive)"

Problem: Specify measured IC50 for `COc1ccc(N2CCN(C(=O)c3cc(=O)c4cc(C)cc(C)c4o3)CC2)cc1` .
Solution: > 80 µM (inactive)

###

Readings of EC50 for the listed compounds
- Tested on: Streptococcus
- ASSAY METHOD TEXT: GAS UMAA2166 growth inhibition – luminescence, BacTiterGlo, counter-screen for streptokinase expression inhibitor project, dose response (AID 1915);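 note: potency for reduction of bacterial viability or growth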
- Assay type: functional, organism-based
The source made the active and inactive calls.

Use these answered entries as a reference point.
>>> observed_result("Cc1c(N=N/C(C#N)=C(\\O)c2ccc(Cl)cc2)c(=O)n(-c2ccccc2)n1C")
"9.3 µM (active)"
>>> observed_result("O=C(NNC(=S)NC(=O)c1ccccc1)c1ccc(O)cc1")
"52.4 µM (inconclusive)"
>>> observed_result("COc1ccc(NC(=O)CSc2nc(O)cc(=O)n2-c2ccccc2)cc1")
"26.1 µM (active)"

Now take the following compound into account.
Problem: GET EC50 where system = Streptococcus and item = `C[C@H]1COC2=C1C(=O)C(=O)c1c2ccc2c1CCCC2(C)C`
Solution: 14.1 µM (active)

###

- MEASUREMENT TARGET: Paired box protein Pax-8 (Homo sapiens)
- ASSAY METHOD TEXT: PAX8 transcriptional activity inhibition in RMG-I – RMG-I cells, luciferase, cherry-pick, dose response (AID 687027)
- Type: functional, cell-based
Activity calls are given as the source filed them.
AC50 overview

>>> observed_result("COCCn1c(C)cc(C2=NN=C(NC3CC3)SC2)c1C")
"< 0.26 µM (active)"
>>> observed_result("C[C@H]1CCCCO[C@@H](CN(C)S(=O)(=O)c2ccccc2)[C@@H](C)CN([C@@H](C)CO)C(=O)c2cc(NC(=O)Nc3ccc(C(F)(F)F)cc3)ccc2O1")
"6.6 µM (active)"
>>> observed_result("O=C(Nc1ccc(Cl)cc1)/C(=C/c1cccc(O)c1)c1nc2ccccc2s1")
"3.92 µM (active)"
>>> observed_result("COc1ccc(S(=O)(=O)N2CCCCN3[C@H](C2)[C@@H](c2ccc(C#CC(C)C)cc2)[C@@H]3CO)cc1")
"6.14 µM (active)"

Consider the additional compound presented here.
Problem: Entry `S=C1SCN(Cc2cccnc2)CN1Cc1cccnc1` needs its AC50 filled in; supply it.
Solution: 3.62 µM (active)

###

- ASSAY METHOD TEXT: Luminescence Cell-Based Dose Response HTS to Identify Activators of Luciferase Translation or Activity in H4 […] Cells. [Related pubchem assays: 1829 (Project Summary), 1814 (Primary HTS)]
- Assay type: functional
Each entry below lists one item and its recorded EC50 value.

Problem: Supply measured EC50 of `CCOC(=O)c1sc(NC(=O)c2ccc(C)o2)nc1C` in your reply.
Solution: < 0.1 µM (inconclusive)

###

- MEASUREMENT TARGET: FAD-linked sulfhydryl oxidase ALR (Homo sapiens, UniProt P55789)
- Sequence (P55789 whole entry): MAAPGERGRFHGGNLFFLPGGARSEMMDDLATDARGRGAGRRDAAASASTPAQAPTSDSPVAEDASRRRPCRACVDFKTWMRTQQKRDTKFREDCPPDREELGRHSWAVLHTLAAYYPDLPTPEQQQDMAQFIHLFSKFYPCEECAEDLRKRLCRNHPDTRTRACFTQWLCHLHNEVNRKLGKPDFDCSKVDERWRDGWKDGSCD
- ASSAY METHOD TEXT: ALR-catalysed DTT oxidation blockers – biochemical, H2O2 detection, luminescence, cherry-pick, dose response (AID 493248)
Calls of active or inactive are those of the source.
READOUT KIND: AC50

Answered cases to consult:
>>> observed_result("O=C(O)c1cc(-c2ccco2)nc2ccc(Br)cc12")
"785 nM (active)"
>>> observed_result("Nc1cc(O)nc(SCc2csc(-c3ccccc3)n2)n1")
"5710 nM (active)"
>>> observed_result("COc1cc(C#CC#CCN2CCCCC2)ccc1O")
"3570 nM (active)"

Problem: Supply AC50 value. Item: `Nc1n[nH]c(Nc2ccccc2)n1`
Solution: 1790 nM (active)

###

- MEASUREMENT TARGET: Genome polyprotein (dengue virus type 2, UniProt P29990)
- ASSAY METHOD TEXT: flavivirus cap methylation enzyme inhibition – biochemical, confirmation dose response, primary screen (AID 588689)
- Type: functional
The source made the active and inactive calls.
# IC50 values compiled below

Worked set:
>>> observed_result("COc1ccccc1N(C(C)=O)C1=C(Cl)C(=O)c2ccccc2C1=O")
"9.2 µM (active)"
>>> observed_result("CC/N=c1\\scc(C)n1/N=C/c1ccc(O)c(O)c1O")
"21.4 µM (active)"
>>> observed_result("O=C(CN1C(=O)/C(=C2\\SC(=S)N(CCS(=O)(=O)O)C2=O)c2ccccc21)Nc1cccc(Br)c1")
"21.6 µM (active)"
>>> observed_result("Cc1ccc(S(=O)(=O)Oc2ccccc2C=C2C(=O)NC(=O)NC2=O)cc1")
"36.8 µM (active)"
>>> observed_result("O=C(O)CN1C(=O)/C(=C\\c2ccccc2OCc2ccccc2)SC1=S")
"35.8 µM (active)"

Problem: Report measured IC50 on Genome polyprotein (dengue virus type 2, UniProt P29990); entry: `O=C1C(O)=C(O)C(=O)c2ccccc21`
Solution: > 100 µM (active)

Problem: Give IC50; test system Genome polyprotein (dengue virus type 2, UniProt P29990); molecule `COc1ccc(NC(=O)c2cc3ccccc3cc2O)cc1`
Solution: > 100 µM (active)

Problem: Enter recorded IC50 with Genome polyprotein (dengue virus type 2, UniProt P29990) for `C[C@H]1COC2=C1C(=O)C(=O)c1c2ccc2c1CCCC2(C)C` here.
Solution: 90.1 µM (active)

Problem: Please indicate recorded IC50 of `Cc1cc(/C=C2\C(=O)NC(=O)N(c3ccccc3)C2=O)c(C)n1-c1ccc(C(=O)O)c(Cl)c1` measured with Genome polyprotein (dengue virus type 2, UniProt P29990).
Solution: 63.7 µM (active)

###

- MEASUREMENT TARGET: Kappa-type opioid receptor (Homo sapiens)
- Sequence (P41145 whole entry): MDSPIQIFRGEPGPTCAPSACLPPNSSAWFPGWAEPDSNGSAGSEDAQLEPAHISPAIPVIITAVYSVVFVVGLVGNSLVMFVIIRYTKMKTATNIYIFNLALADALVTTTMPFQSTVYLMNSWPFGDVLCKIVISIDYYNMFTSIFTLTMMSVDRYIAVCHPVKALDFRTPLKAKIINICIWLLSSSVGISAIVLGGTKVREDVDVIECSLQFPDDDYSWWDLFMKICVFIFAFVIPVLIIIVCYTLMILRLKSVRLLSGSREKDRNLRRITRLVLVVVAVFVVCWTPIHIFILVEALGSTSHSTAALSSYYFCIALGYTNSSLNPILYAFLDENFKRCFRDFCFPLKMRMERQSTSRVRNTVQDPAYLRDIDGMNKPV
- Format: functional
READOUT KIND: IC50

Problem: # return recorded IC50 for input `C/C(=N\NC(=O)c1cccc(Br)c1)c1ccccn1`
Solution: > 32 µM

###

Listed here: items and their measured AC50.
- MEASUREMENT TARGET: Paired box protein Pax-8 (Homo sapiens, UniProt Q06710)
- Sequence (Q06710 whole entry): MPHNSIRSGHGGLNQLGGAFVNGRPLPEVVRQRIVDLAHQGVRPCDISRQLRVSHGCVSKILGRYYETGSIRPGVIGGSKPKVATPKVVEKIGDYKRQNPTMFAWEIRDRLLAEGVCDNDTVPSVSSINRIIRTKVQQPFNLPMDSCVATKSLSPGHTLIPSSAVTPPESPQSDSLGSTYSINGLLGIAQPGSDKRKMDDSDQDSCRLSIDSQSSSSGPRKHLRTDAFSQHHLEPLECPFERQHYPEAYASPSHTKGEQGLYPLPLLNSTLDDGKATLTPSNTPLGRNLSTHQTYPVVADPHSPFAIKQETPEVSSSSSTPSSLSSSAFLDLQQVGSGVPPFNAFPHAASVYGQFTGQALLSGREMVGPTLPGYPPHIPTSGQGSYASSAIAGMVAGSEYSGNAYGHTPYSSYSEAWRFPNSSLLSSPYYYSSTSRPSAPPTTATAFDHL
- ASSAY METHOD TEXT: PAX8 transcriptional activity inhibition in RMG-I – RMG-I cells, luciferase, cherry-pick, dose response (AID 687027);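 note: luciferase reporter driven by Pax8 target thyroperoxidase promoter measured by SteadyGlo luminescence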
- Assay type: functional, cell-based
The source made the active and inactive calls.

# example entries with known answers
>>> observed_result("C[C@@H]1CN([C@H](C)CO)C(=O)c2cc(NC(=O)Nc3ccc(C(F)(F)F)cc3)ccc2O[C@@H](C)CCCCO[C@H]1CN(C)C(=O)Nc1ccc(C(F)(F)F)cc1")
"1.89 µM (active)"
>>> observed_result("CC(C)CC#Cc1ccc2c(c1)O[C@@H](CN(C)Cc1ccncc1)[C@H](C)CN([C@@H](C)CO)S2(=O)=O")
"5.97 µM (active)"
>>> observed_result("C[C@@H]1CN([C@@H](C)CO)C(=O)c2cc(NS(=O)(=O)c3ccc(Cl)cc3)ccc2O[C@@H](C)CCCCO[C@H]1CN(C)Cc1ccc(C(F)(F)F)cc1")
"8.29 µM (active)"

Kindly review the next compound as well.
Problem: Quickly give me recorded AC50 for `COc1ccccc1N(C(C)=O)C1=C(Cl)C(=O)c2ccccc2C1=O`
Solution: 3.59 µM (active)

Where do the numbers come from? From ChEMBL document CHEMBL1201862.
